Task for the reader: assign each of the following molecules its reported EC50.
molecular target: human GPR119 receptor (Homo sapiens, UniProt Q8TDV5); construct: host or cells: CHO; test: LANCE Ultra cAMP assay: stimulation of GPR119-mediated cAMP production in CHO cells stably expressing human GPR119 receptor; type: cell-based; conditions: Table 2C entries 1-4; modified protocol, 500 cells/well
Sequence (Q8TDV5 whole entry): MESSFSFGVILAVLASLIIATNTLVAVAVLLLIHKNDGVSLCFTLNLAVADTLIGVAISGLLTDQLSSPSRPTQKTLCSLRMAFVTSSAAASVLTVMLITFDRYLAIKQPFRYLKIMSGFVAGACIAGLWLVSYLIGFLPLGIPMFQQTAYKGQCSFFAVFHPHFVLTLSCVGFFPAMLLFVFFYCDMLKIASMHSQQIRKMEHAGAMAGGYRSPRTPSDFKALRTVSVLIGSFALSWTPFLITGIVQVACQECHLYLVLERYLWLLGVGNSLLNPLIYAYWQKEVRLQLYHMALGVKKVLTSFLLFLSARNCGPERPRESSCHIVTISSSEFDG
Numeric answer only, unit µM assumed.

# EC50 lookup, item `O=S1(=O)c2ccc(-c3ccc(OCC4CCN(c5ncc(Cl)cn5)CC4)c(F)c3)cc2OC12CCC2`
0.0298

# EC50 lookup, item `O=S1(=O)c2ccc(-c3ccc(OCC4CCN(c5ncc(Cl)cn5)CC4)c(F)c3)cc2OC12CCCCC2`
0.033

# EC50 lookup, item `CC1(C)Oc2cc(-c3ccc(OCC4CCN(c5ncc(Cl)cn5)CC4)c(F)c3)ccc2S1(=O)=O`
0.0686

# EC50 lookup, item `O=S1(=O)c2ccc(-c3ccc(OCC4CCN(c5ncc(Cl)cn5)CC4)c(F)c3)cc2OC12CCCC2`
0.114

Provenance of the data: patent US11358956B2
